These data points were gathered from patent US5948635A.

# System: 7E11-C5 antibody
# test method notes: Relative affinity: phage binding to microtiter plates coated with differing amounts of 7E11-C5
# Design: species or system mouse
# condition notes: plates coated with 0, 4, 20, 100 and 500 ng antibody
recorded endpoint: relative binding to 7E11-C5 (fold less well than the best binders)

The cases that follow already have their relative binding to 7E11-C5 (fold less well than the best binders) on record.
# substance, study target, result
records = [
    ("RDSAVENPSVGGEIP MYRYLH QR [7E11.12-2]", "7E11-C5 antibody", "~ 2 fold"),
    ("RLGNVWRVEGGG MYQQLH HNFPX^2 [7E11.12-1]", "7E11-C5 antibody", "bound the best"),
    ("PVQKEYGFFMSGAS MIRLLR ETP [7E11.12-3]", "7E11-C5 antibody", "50 fold"),
    ("QKGGPGLLLYGGDS MWITLH EPG [7E11.12-4]", "7E11-C5 antibody", "5-10 fold"),
    ("SVQFKSISSRSMDDVVKDPGPKPA MWKMLH SKNPFTLS [7E11.9-2]", "7E11-C5 antibody", "5-10 fold"),
]

substance TVAT MHDTLH SAPGSGNLPGSYDIKPIFKASGALHSTX^2 [7E11.9-4] , relative binding to 7E11-C5 (fold less well than the best binders) observed: 5-10 fold

substance FDHTYSGPVCVKNGGLVSPGVLS MYNRLH SDGGPSLAS [7E11.9-3] , relative binding to 7E11-C5 (fold less well than the best binders) observed: bound the best

substance IDMPETAST MYNMLH RNEPGGRKLSPPANDMPPALLKR [7E11.9-5] , relative binding to 7E11-C5 (fold less well than the best binders) observed: bound the best

substance SSCAYARYVPLLLLLYANPG MYSRLH SPAVRPLTQSSA [7E11.9-1] , relative binding to 7E11-C5 (fold less well than the best binders) observed: bound the best

----------
Test system streptavidin (Streptomyces avidinii), IC50 listed for each of the compounds.

The cases that follow already have their IC50 on record.
# compound, recorded endpoint, result
measured = [
    ("N=C1N[C@H]2[C@H](CS[C@H]2CCCCC(=O)O)N1 [immunobiotin]", "IC50", "~3 µM"),
    ("N[C@@H]1[C@H](CCCCC(=O)O)SC[C@@H]1N [diaminobiotin]", "IC50", "~0.2 µM"),
]

compound O=C(O)CCCC[C@@H]1CCSS1 (racemic) [lipoic acid] , IC50 observed: ~1050 µM
